Quick note: these are Ki numbers for system: human D3 dopamine receptor (Homo sapiens, UniProt P35462)
Sequence (P35462 whole entry): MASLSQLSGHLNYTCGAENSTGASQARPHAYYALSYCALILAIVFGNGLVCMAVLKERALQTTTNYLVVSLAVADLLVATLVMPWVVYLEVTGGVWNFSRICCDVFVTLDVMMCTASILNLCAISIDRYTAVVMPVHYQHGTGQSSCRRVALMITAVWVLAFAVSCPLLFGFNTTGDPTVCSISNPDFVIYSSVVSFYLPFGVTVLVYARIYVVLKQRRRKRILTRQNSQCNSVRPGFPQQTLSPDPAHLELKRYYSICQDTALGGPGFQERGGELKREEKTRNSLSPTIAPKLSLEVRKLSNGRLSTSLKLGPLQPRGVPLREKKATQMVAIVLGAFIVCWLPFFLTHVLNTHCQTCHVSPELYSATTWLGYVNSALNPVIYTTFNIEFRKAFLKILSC
measure: Ki

> print(dat)
                                   compound  measured.result
1  COC[C@H]1CC[C@H](CC(=O)N[C@H]2CC[C@H](CCN3CCC(C(=O)c4ccc(F)cc4)CC3)CC2)CC1            25 nM
2  C[C@]1(O)CC[C@@H](CC(=O)N[C@H]2CC[C@H](CCN3CCC(C(=O)c4ccc(F)cc4)CC3)CC2)CC1 (single isomer, unassigned)            43 nM
3  CO[C@H]1CC[C@H](CC(=O)N[C@H]2CC[C@H](CCN3CCC(C(=O)c4ccc(F)cc4)CC3)CC2)C1 (single isomer, unassigned) [Example 14]            18 nM
4  COCC1CC(CC(=O)N[C@H]2CC[C@H](CCN3CCC(C(=O)c4ccc(F)cc4)CC3)CC2)C1 (mixture of isomers)            27 nM
5  CO[C@@H]1CCC[C@@H](CC(=O)N[C@H]2CC[C@H](CCN3CCC(C(=O)c4ccc(F)cc4)CC3)CC2)C1 (single isomer, unassigned)            35 nM
6  O=C(CC1CC(CO)C1)N[C@H]1CC[C@H](CCN2CCC(C(=O)c3ccc(F)cc3)CC2)CC1 (mixture of isomers)            28 nM
